Where do these numbers come from? They come from ChEMBL document CHEMBL3988442.

Parameter Percent Effect: see the listing below.
Target: Arginase-2, mitochondrial (Homo sapiens) (UniProt P78540)
Sequence (whole entry): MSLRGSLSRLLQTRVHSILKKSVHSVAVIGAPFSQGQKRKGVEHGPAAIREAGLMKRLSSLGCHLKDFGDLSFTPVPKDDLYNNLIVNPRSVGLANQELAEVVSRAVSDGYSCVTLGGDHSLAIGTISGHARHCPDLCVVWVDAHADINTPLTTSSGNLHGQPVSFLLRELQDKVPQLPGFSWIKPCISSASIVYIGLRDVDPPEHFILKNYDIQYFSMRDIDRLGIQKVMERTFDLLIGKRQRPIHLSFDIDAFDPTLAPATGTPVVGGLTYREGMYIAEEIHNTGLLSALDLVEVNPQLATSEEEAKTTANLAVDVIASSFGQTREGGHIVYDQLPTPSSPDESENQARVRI
Test: in vitro enzyme assay to detect the production of urea directly proportional to the activity of Arginase II; also: in the data most compounds retested in dose-response had high values
Type: functional
Design: scale not given: direction of the effect not stated beside the values
Details: 33.3 µM
Write the number in % without appending the unit.

# count of solved cases: 2
>>> value("Cc1cc(C)n(C2CCCN(C(=O)c3ccc(F)cc3F)C2)n1 (stereo not given)")
-3.75
>>> value("Cc1cnn(C2CCCN(C(=O)Cc3ccc(-n4cccn4)cc3)C2)c1 (stereo not given)")
2.66

Percent Effect reported for this compound `c1ccc(OCCCN2CCN(c3ccc4nncn4n3)CC2)cc1` : -5.69

Item: Cc1cc(=O)[nH]c(SCC(=O)N(C)CC2Cc3ccccc3CN2C)n1 (stereo not given) | Percent Effect: -0.744

The compound listed as `Cc1oncc1C(=O)NCc1cc(=O)n2c(n1)CN(C)CCC2` shows Percent Effect equal to 4.86

* * *

target: Protein translocase subunit SecA (Escherichia coli (strain K12)) (UniProt P10408); test: Assay to Identify E. coli SecA ATPase Inhibitors; type: functional; design: scale not given: direction of the effect not stated beside the values; conditions: 30 µM
Sequence (P10408 whole entry): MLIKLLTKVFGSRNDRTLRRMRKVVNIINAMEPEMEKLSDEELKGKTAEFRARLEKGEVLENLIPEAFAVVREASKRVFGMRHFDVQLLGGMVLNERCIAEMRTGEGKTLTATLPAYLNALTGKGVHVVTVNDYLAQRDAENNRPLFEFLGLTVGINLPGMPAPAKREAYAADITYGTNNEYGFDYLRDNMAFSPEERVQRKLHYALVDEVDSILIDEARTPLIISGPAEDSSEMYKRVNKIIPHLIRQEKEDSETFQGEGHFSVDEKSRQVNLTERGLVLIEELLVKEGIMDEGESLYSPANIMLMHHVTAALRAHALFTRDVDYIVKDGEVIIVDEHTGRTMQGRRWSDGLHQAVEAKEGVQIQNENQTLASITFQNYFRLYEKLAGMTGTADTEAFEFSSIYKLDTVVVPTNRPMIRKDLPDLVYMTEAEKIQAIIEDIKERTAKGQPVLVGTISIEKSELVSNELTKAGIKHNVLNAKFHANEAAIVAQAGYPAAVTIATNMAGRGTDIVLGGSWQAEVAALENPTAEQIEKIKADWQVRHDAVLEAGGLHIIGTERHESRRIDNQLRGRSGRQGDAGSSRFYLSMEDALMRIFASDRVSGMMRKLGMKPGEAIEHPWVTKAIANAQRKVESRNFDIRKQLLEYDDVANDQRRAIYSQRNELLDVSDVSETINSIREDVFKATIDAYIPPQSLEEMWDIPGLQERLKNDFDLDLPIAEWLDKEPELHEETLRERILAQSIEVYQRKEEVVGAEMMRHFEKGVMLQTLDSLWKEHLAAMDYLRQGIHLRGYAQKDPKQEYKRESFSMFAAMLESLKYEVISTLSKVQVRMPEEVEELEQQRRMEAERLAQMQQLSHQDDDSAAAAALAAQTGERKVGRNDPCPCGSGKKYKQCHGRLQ
Measured potencies and affinities stand elsewhere.
Recorded Percent Effect, one value per entry.
Respond numerically; units are % and should not be typed.

>>> value("Cc1occc1C(=O)N1CCC2(CCC2NC(=O)c2ccn(C)c2)CC1 (stereo unspecified)")
-5.67
>>> value("CN(CCO)C(=O)c1coc(CN2CCN(c3ccccc3F)CC2)n1")
-2.04
>>> value("Cc1nc(CN2CCN(Cc3nccn3C)CC2)no1")
-4.99
>>> value("O=C(c1cc(F)ccc1F)C1CCN(C(=O)c2ccc(=O)[nH]n2)CC1")
-2.7

The reported Percent Effect of the molecule `Nc1nc(C2CCN(C(=O)c3cncs3)CC2)cs1` was -7.01

Lab note: `O=C(NCc1ccco1)[C@H]1C[C@@H]2CCN(c3ccncn3)C[C@@H]2O1` gave Percent Effect of -3.35

Lab book: Percent Effect of `COc1ccc(CNC(=O)c2nn(C)c3c2CS(=O)(=O)CC3)cc1OC` noted as -1.94

* * *

target: Tyrosyl-tRNA synthetase, putative (Trypanosoma cruzi (strain CL Brener)); test: Trypanosoma cruzi tyrosyl tRNA synthetase (TcYRS) _High Tyrosine SOP; type: functional; design: scale not given: in the data most compounds retested in dose-response had high values; conditions: 30 µM
Form field: Percent Effect (one value per entry).
// return numeric value only (unit: %, not printed)

>>> value("Cc1nn(C)c(C)c1CNCc1ccnc(N2CCOCC2)c1")
-1.04
>>> value("O=C(O)[C@]12CCCN(Cc3ccncc3)[C@@H]1CCN(c1cnccn1)C2")
-0.546
>>> value("CCOC(=O)[C@]12CCCN(Cc3nccs3)C[C@H]1CN(CCN(C)C)C2")
2.12
>>> value("CCn1cc(NC(=O)NCC(c2cccc(F)c2)N(C)C)cn1 (stereo unspecified)")
11.3
>>> value("Cc1nnc(C(C)NCC2(c3c(F)cccc3F)CCCC2)o1 (stereo unspecified)")
0.529

Attention now shifts to the item below.
Summary: `Fc1ccccc1CN1C[C@@H](OCc2ccncc2)[C@H]2OCCC[C@H]21` , Tyrosyl-tRNA synthetase, putative (Trypanosoma cruzi (strain CL Brener)), Percent Effect = 7.53

* * *

target: Sialic acid-binding Ig-like lectin 9 (Homo sapiens) (UniProt Q9Y336); assay: Hs-Siglec9 ALPHAscreen SOP 20170721; set-up: scale not given: direction of the effect not stated beside the values; conditions: 10 µM
Sequence (Q9Y336 whole entry): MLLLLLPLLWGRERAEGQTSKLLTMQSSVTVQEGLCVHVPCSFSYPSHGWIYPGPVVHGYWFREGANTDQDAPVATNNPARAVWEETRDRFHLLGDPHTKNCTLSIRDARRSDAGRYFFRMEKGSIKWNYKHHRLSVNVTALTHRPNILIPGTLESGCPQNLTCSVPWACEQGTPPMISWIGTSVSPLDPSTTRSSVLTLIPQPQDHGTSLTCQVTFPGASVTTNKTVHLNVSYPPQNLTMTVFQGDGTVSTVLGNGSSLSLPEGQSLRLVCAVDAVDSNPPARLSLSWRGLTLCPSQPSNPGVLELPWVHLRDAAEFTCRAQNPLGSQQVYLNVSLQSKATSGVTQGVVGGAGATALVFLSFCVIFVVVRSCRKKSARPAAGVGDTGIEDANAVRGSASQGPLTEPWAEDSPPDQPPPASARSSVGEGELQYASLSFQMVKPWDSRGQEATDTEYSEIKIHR
observable: Percent Effect
The reply must contain the numeric value and, after it, the unit.

>>> value("CC(C(=O)Nc1ncccn1)N1CCCN(c2nccs2)CC1 (configuration not stated)")
"-8.35%"
>>> value("Cc1nsc(N2CCCN(c3nc(C4CC4)ns3)CC2)n1")
"5.05%"
>>> value("Cc1ccc(NC(=O)C2CSCN2C(=O)c2cc[nH]n2)c(C)c1 (configuration not stated)")
"9.07%"
>>> value("CCc1nnc(CN2CCN(C(=O)c3ccccn3)CC2)o1")
"-1.91%"
>>> value("CN(C)c1cc2c(nn1)CCN(C(=O)Cc1noc3ccccc13)C2")
"-2.79%"

Documented Percent Effect of CC1CN(C)c2ccccc2CN1C(=O)CSc1ccncc1 (configuration not stated) : 1.63%

// sample COc1ccccc1CC1CCCN(CC(=O)N2CCOCC2)C1 (configuration not stated) , its Percent Effect was 6.99%

* * *

Attribute: Percent Effect
biological target: Tyrosyl-tRNA synthetase, putative (Trypanosoma cruzi (strain CL Brener)); test: Trypanosoma cruzi tyrosyl tRNA synthetase (TcYRS) _High Tyrosine SOP; assay type: functional; set-up: scale not given: in the data most compounds retested in dose-response had high values; conditions: 30 µM
Just the number please, in %, no unit attached.

Examples with their reported Percent Effect follow.
>>> value("COCCNC(=O)c1cc(S(=O)(=O)N2CCCCC2)cs1")
0.532
>>> value("NC(=O)CSCC(=O)N1CCc2cc(Cl)cc(Cl)c2C1")
3.23
>>> value("CC(=O)N1C[C@@H](c2ccsc2)[C@@H]2CN(Cc3cccc(Cl)c3)CC[C@@H]21")
9.52
>>> value("Cn1cnc2c1CCN(Cc1ccc(C(=O)N3CCCC3)cc1)C2")
3.35

Value of measured Percent Effect for the entry CNC(=O)c1ccc(C(=O)N2CCCC2c2cnn(C)c2)cn1 (stereo not given) : 5.42

Data point: `Cc1ccc([C@@H]2CN(S(=O)(=O)N(C)C)C[C@H]2N(C)C)cc1` ; Percent Effect = 4.3

Field Percent Effect (entry `CCCOc1cc(C)ccc1NC(=O)NCCC(=O)N(C)C` ) reads 6.45

* * *

Some compounds, each annotated with its measured Percent Effect.
biological target: Protein translocase subunit SecA (Escherichia coli (strain K12)); experiment: Assay to Identify E. coli SecA ATPase Inhibitors; format: functional; design: scale not given: direction of the effect not stated beside the values; details: 30 µM
Entries with a potency or affinity are not part of this list.

>>> value("O=S(=O)(N1CCCC1)N1CCCCC1CCc1ccccc1 (stereo unspecified)")
"-6.97%"

GET /values?item= `CCc1ccc(C(=O)N2CCC(c3nncn3CC)CC2)cc1` &system= Protein translocase subunit SecA (Escherichia coli (strain K12)) returns Percent Effect: -10%

Tested on Protein translocase subunit SecA (Escherichia coli (strain K12)): `O=C(COc1ccc2c(c1)CCC2)NS(=O)(=O)c1cncc(Br)c1` . Observed Percent Effect: -2.61%

Value (Percent Effect, Protein translocase subunit SecA (Escherichia coli (strain K12))) for record Cc1cnc(C(=O)N2CCCCC2c2[nH]ncc2S(C)(=O)=O)cn1 (stereo unspecified) = -1.18%

Result for CC(C)N1CCCC2(CCN(C(=O)CCCn3ccnc3)C2)C1=O (stereo unspecified) , tested on Protein translocase subunit SecA (Escherichia coli (strain K12)), Percent Effect: -6.84%

For the compound `O=C(c1ccoc1)N1CCCn2cnc(COCC3CC3)c2C1` , the measured Percent Effect on Protein translocase subunit SecA (Escherichia coli (strain K12)) was -3.46%

* * *

As shown below, each of these compounds has a reported Percent Effect value.
organism: Homo sapiens; assay: To identify inhibition of the IFN signalling (Jak-Stat) pathway via expression of an eGFP reporter gene under the control of an IFN-stimulated response element (ISRE) containing MxA promoter.; assay type: functional; parameters: scale not given: direction of the effect not stated beside the values; conditions: 30 µM
Kindly provide the numeric value in % only, without the unit symbol.

>>> value("Cn1cc(C(=O)N2CCCC(Cc3nccs3)C2)cn1 (stereo unspecified)")
6.88
>>> value("CC(C)C(C(=O)N1CCC(N(C)c2cccnn2)CC1)n1cncn1 (stereo unspecified)")
11.7
>>> value("Cc1ccc(N2CCC3(CCN(C(N)=O)CC3)CC2)nn1")
5.72
>>> value("Cc1noc(NC(=O)c2ccc(Br)s2)n1")
40.2
>>> value("COC[C@H]1CCC[C@]12CN(CCc1ccccc1)CCO2")
4.65

We next turn to a different compound, shown below.
Field Percent Effect (entry `COc1ccc(-c2ccnc3c2C(=O)CCC3)cc1` ) reads 22.2

* * *

In this section we review reported Percent Effect values for a set of molecules.
biological target: Chromo domain-containing protein 1 (Saccharomyces cerevisiae (strain ATCC 204508 / S288c) (Baker's yeast)) (UniProt P32657); assay: ScCHD-1 Enzyme Inhibition Assay; assay type: functional; design: scale not given: in the data most compounds retested in dose-response had high values; conditions: 30 µM
Sequence (P32657 whole entry, the tested form may be a part): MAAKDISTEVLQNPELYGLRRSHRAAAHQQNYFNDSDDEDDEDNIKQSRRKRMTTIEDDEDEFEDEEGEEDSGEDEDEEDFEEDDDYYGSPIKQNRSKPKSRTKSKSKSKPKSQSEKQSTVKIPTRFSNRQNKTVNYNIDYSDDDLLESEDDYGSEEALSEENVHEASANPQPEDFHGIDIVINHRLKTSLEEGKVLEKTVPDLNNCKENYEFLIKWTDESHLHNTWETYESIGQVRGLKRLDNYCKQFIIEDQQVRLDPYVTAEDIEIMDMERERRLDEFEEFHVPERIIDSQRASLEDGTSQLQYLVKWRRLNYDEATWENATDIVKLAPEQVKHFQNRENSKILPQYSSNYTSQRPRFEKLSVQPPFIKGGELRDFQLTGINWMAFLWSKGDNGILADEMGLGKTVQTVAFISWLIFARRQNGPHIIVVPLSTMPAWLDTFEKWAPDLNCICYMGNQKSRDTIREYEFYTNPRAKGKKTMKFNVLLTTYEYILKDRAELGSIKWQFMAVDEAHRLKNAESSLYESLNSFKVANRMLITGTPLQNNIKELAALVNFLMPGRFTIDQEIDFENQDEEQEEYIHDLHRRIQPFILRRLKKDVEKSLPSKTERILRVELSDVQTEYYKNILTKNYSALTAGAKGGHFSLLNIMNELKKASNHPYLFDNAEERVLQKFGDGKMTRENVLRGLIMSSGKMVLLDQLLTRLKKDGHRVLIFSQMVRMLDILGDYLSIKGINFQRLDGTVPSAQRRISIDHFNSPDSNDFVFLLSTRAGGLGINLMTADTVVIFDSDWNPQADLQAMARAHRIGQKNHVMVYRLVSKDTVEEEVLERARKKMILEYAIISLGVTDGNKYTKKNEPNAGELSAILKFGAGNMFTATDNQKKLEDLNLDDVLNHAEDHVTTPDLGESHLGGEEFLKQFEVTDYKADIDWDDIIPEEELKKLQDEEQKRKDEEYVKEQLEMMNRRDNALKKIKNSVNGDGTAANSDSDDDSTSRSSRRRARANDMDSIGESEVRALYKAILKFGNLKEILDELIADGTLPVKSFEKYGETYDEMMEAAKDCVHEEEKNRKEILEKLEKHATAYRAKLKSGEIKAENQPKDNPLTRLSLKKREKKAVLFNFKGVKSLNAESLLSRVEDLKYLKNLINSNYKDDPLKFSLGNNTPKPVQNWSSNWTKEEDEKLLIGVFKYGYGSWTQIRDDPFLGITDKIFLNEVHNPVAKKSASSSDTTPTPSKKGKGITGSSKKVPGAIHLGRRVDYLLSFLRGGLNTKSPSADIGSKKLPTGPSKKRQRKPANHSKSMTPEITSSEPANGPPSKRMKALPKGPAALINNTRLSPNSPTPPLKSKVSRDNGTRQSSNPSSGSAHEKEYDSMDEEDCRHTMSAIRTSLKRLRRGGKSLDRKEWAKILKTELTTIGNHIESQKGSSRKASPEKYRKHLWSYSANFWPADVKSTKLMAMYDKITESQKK
Respond with the bare value in %.

>>> value("COC(=O)C1CCN(C(=O)c2ccc(NS(C)(=O)=O)c(C)c2)CC1")
0.629

Recorded result, CC(CCc1ccco1)NC(=O)Nc1cc(C(F)(F)F)c[nH]c1=O (stereo not given) , Percent Effect: -2

Recorded Percent Effect (molecule `COCCO[C@H]1CCN(C(=O)c2ccno2)[C@H]1Cc1cnn(C)c1` ): 1.61

`CS(=O)(=O)N1CC[C@H]2C[C@@H](C(=O)N3CCOCC3)O[C@@H]2C1` yielded Percent Effect of 1.18

For reference, reported Percent Effect for Cc1cc(C(=O)N2CCCCC2C)ccc1NCCCO (stereo not given) stands at -0.238

The recorded Percent Effect for `COCC(=O)N1CCC2(CCN(Cc3ccccn3)CC2)CC1` is 15

`Cc1n[nH]c(C)c1NC(=O)CN1CCn2c(nnc2C(C)C)C1` yielded Percent Effect of -16.6

Record CN(C)C(CNC(=O)c1cc2c([nH]c1=O)CCCC2=O)c1ccsc1 (stereo not given) , field Percent Effect: 45

GET /value?item= CC(=O)Nc1nc(CN2CCCC2Cn2cncn2)cs1 (stereo not given) &field=Percent Effect returns -12.8

For reference, reported Percent Effect for `Cc1ccc(C(=O)N2CCN(Cc3ccsc3)CC2)n1C` stands at -6.68
